All figures here come from paper PMC8175350.

System: HepG2
Assay: HepG2 72 h CellTiter-Glo cytotoxicity
Details: read-out: HepG2 72-hour cytotoxicity CC50 GeoMean; 72 h
Recorded Metric: CC50 (µM)
Give bare numbers, in µM.

Report CC50 for CN(C)CC1=C[CH]([Fe][CH]2C=CC=C2)C=C1CNc1ccnc2cc(Cl)ccc12 (stereo not shown) please. 4.72

* * *

Assay: Uninfected HeLa-ACE2 24 h live/dead cytotoxicity counter screen
Assay type: cell-based, human
Details: human, uninfected HeLa-ACE2 cells, detail block; read-out: HeLa-ACE2 uninfected cytotoxicity CC50 GeoMean
Counter-ions that a name gives are not always drawn.
Recorded Metric: CC50 at 24 h

For orientation, consider the following solved cases.
# Compound, CC50 at 24 h
records = [
    ("COC(CNCC(C)C)COc1c(C)csc1C(=O)CCc1ccccc1 (centres unmarked)", "> 35.6 µM"),
    ("CN1CC2c3ccccc3Oc3ccc(Cl)cc3C2C1 (centres unmarked) [Asenapine maleate]", "> 35.6 µM"),
    ("CC(C)C(=O)OC[C@H]1O[C@@H](n2ccc(NO)nc2=O)[C@H](O)[C@@H]1O", "> 39.8 µM"),
    ("CN1CCN(c2ccc(C(=O)NCc3cnc(C#N)nc3NCC(C)(C)C)cc2)CC1", "> 36.1 µM"),
]

Proceeding to the next compound to report its CC50 at 24 h.
Report CC50 at 24 h for CCN(CC)Cc1cc(Nc2ccnc3cc(Cl)ccc23)ccc1O please. > 39.8 µM

* * *

Experiment: in vitro
Conditions: human, Calu-3 uninfected cytotoxicity CC50 GeoMean, unrounded geometric mean
Counter-ions that a name gives are not always drawn.
Recorded Metric: CC50

# Molecule, CC50
records = [
    ("C[C@@H]1C[C@@H]([C@H](O)CC2CC(=O)NC(=O)C2)C(=O)[C@@H](C)C1 [Cycloheximide]", "> 2.43 µM"),
    ("CC[C@H]1CN2CCc3cc(OC)c(OC)cc3[C@@H]2C[C@@H]1C[C@H]1NCCc2cc(O)c(OC)cc21", "> 4.96 µM"),
    ("CC[C@H]1CN2CCc3cc(OC)c(OC)cc3[C@@H]2C[C@@H]1C[C@H]1NCCc2cc(OC)c(OC)cc21", "> 8.87 µM"),
    ("COC(=O)[C@@]12OC[C@]34[C@H]([C@@H](O)[C@@H]1O)[C@@]1(C)CC(=O)C(O)=C(C)[C@@H]1C[C@H]3OC(=O)[C@H](OC(=O)/C=C(\\C)C(C)C)[C@@H]24 [Bruceantin]", "0.973 µM"),
    ("CO[C@H]1C[C@H](O[C@H]2CC[C@]3(C=O)[C@H]4CC[C@]5(C)[C@@H](C6=CC(=O)OC6)CC[C@]5(O)[C@@H]4CC[C@]3(O)C2)O[C@H](C)[C@H]1O", "> 5.87 µM"),
    ("C[C@]12O[C@H](C[C@]1(O)CO)n1c3ccccc3c3c4c(c5c6ccccc6n2c5c31)CNC4=O", "> 20.1 µM"),
    ("CN(C)C(=O)COC(=O)Cc1ccc(OC(=O)c2ccc(NC(=N)N)cc2)cc1 [Camostat mesylate]", "> 29.9 µM"),
    ("CC[C@@H]1/C=C/C=C/C[C@H](C)[C@@H](O)[C@](C)(O)C(=O)[C@H](C)[C@@H](O)[C@H](C)C(=O)[C@H](C)[C@@H](O)[C@H](C)/C=C/C(=O)O[C@H]2[C@@H](C)[C@@H](CC1)O[C@]1(O[C@H](C[C@H](C)O)[C@H](C)CC1=O)[C@@H]2C", "> 24.5 µM"),
    ("C=C(C)[C@]12C[C@@H](C)[C@@]34O[C@](Cc5ccccc5)(O[C@@H]1[C@@H]3C=C(COC(=O)Cc1ccc(O)c(OC)c1)C[C@]1(O)C(=O)C(C)=C[C@@H]41)O2", "17.3 µM"),
    ("CC(=O)O[C@H]1C[C@H](O[C@H]2[C@@H](O)C[C@H](O[C@H]3[C@@H](O)C[C@H](O[C@H]4CC[C@@]5(C)[C@H](CC[C@@H]6[C@@H]5C[C@@H](O)[C@]5(C)[C@@H](C7=CC(=O)OC7)CC[C@]65O)C4)O[C@@H]3C)O[C@@H]2C)O[C@H](C)[C@H]1O[C@@H]1O[C@H](CO)[C@@H](O)[C@H](O)[C@H]1O [Lanatoside C]", "> 6.21 µM"),
]

Each molecule below has a recorded value; state its CC50.
1. C=Cc1cc(C(=O)Nc2ccc(C(=N)N)cc2)c(-c2ccc(C(=O)NCC3CC3)nc2C(=O)O)cc1OC
2. CCCCCCCCCCCCCC(=O)O[C@@H]1[C@@H](C)[C@@]2(O)[C@@H](C=C(CO)C[C@]3(O)C(=O)C(C)=C[C@@H]23)[C@@H]2C(C)(C)[C@]12OC(C)=O [Phorbol 12-myristate 13-acetate]

["> 29.9 µM", "22.5 µM"]

* * *

Assay: in vitro
Conditions: human, Calu-3 uninfected cytotoxicity CC50 GeoMean
Recorded Metric: CC50 at 48 h

For orientation, consider the following solved cases.
# Structure Smiles, CC50 at 48 h
rows = [
    ("Oc1ccc(Nc2ccnc3cc(Cl)ccc23)cc1CN1CCCC1", "18.7 µM"),
    ("COc1ccc2cc1Oc1ccc(cc1)C[C@H]1c3c(cc4c(c3Oc3cc5c(cc3OC)CCN(C)[C@@H]5C2)OCO4)CCN1C", "> 27.8 µM"),
    ("CCCCN1CC[C@H](c2ccc(N(C)C)cc2)[C@@H](COc2ccc(C(F)(F)F)cc2)C1", "> 23.5 µM"),
]

Proceeding to the next compound to report its CC50 at 48 h.
Report CC50 at 48 h for CN1CCN(c2ccc(C(=O)NCc3cnc(C#N)nc3NCC(C)(C)C)cc2)CC1 please. > 29.9 µM

* * *

Test system: SARS-CoV-2
Test: microbe, parasite or virus in culture
Format: cell-based
Settings: Severe acute respiratory syndrome coronavirus 2, HeLa-ACE2, 24 h, curve-fit effect at infinite concentration, average; read-out: HeLa-ACE2 CoV-2 Sinf Average
Recorded Metric: Emax (%)
Give bare numbers, in %.

For orientation, consider the following solved cases.
# Compound, Reading
measured = [
    ("CNC(=O)n1ccc2cc(Oc3ccnc(NC(=O)c4ccc(C5CCN(CCO)CC5)cc4)c3)c(OCCOC)cc21", 100),
    ("CC(=O)O[C@H]1C[C@H](O[C@H]2[C@@H](O)C[C@H](O[C@H]3[C@@H](O)C[C@H](O[C@H]4CC[C@@]5(C)[C@H](CC[C@@H]6[C@@H]5C[C@@H](O)[C@]5(C)[C@@H](C7=CC(=O)OC7)CC[C@]65O)C4)O[C@@H]3C)O[C@@H]2C)O[C@H](C)[C@H]1O[C@@H]1O[C@H](CO)[C@@H](O)[C@H](O)[C@H]1O [Lanatoside C]", 97),
    ("CO[C@H]1C[C@H](O[C@H]2CC[C@]3(C=O)[C@H]4CC[C@]5(C)[C@@H](C6=CC(=O)OC6)CC[C@]5(O)[C@@H]4CC[C@]3(O)C2)O[C@H](C)[C@H]1O", 93),
]

Each compound below has a recorded value; state its Emax.
1. CC[C@H]1CN2CCc3cc(OC)c(OC)cc3[C@@H]2C[C@@H]1C[C@H]1NCCc2cc(O)c(OC)cc21
2. COC(=O)[C@@]12OC[C@]34[C@H]([C@@H](O)[C@@H]1O)[C@@]1(C)CC(=O)C(O)=C(C)[C@@H]1C[C@H]3OC(=O)[C@H](OC(=O)/C=C(\C)C(C)C)[C@@H]24 [Bruceantin]

1: 99; 2: 98

* * *

Assay: in vitro
Conditions: human
Recorded Metric: CC50 at 72 h (µM)
Give bare numbers, in µM.

# Compound, CC50 at 72 h, µM
rows = [
    ("COC(=O)C1=C(C)NC(C)=C(C(=O)OCCN2CCN(C(c3ccccc3)c3ccccc3)CC2)C1c1cccc([N+](=O)[O-])c1 (centres unmarked)", 30.7),
]

Report CC50 at 72 h for Oc1ccc(Nc2ccnc3cc(Cl)ccc23)cc1CN1CCCC1 please. 6.39

* * *

Can you tell me CC50 at 24 h for the items I'm about to list?
Assay: Uninfected HeLa-ACE2 24 h live/dead cytotoxicity counter screen
Type: cell-based, human
Details: human, uninfected HeLa-ACE2 cells, detail block; read-out: HeLa-ACE2 uninfected cytotoxicity CC50 GeoMean
Counter-ions that a name gives are not always drawn.

For orientation, consider the following solved cases.
# Molecule, Recorded Metric, Reading
data = [
    ("COc1ccc2cc1Oc1ccc(cc1)C[C@H]1c3c(cc4c(c3Oc3cc5c(cc3OC)CCN(C)[C@@H]5C2)OCO4)CCN1C [Cepharanthine]", "CC50 at 24 h", "> 25.4 µM"),
    ("N#Cc1ccc2c(c1)[C@H]1CN(CCCCNC(=O)c3ccc(-c4ccccc4)cc3)C[C@@H]1CO2 [S-33084]", "CC50 at 24 h", "> 24.8 µM"),
    ("COC(=O)[C@H]1[C@H]2C[C@@H]3c4[nH]c5cc(OC)ccc5c4CCN3C[C@H]2C[C@@H](OC(=O)c2cc(OC)c(OC)c(OC)c2)[C@@H]1OC [Reserpine]", "CC50 at 24 h", "> 36.4 µM"),
    ("CN1[C@@H]2CC[C@H]1C[C@@H](N1Cc3ccc4ccccc4c3C1=O)C2 [CR-3124]", "CC50 at 24 h", "> 39.8 µM"),
    ("Oc1ccc(Nc2ccnc3cc(Cl)ccc23)cc1CN1CCCC1 [Amopyroquine]", "CC50 at 24 h", "17.2 µM"),
]

Each molecule below has a recorded value; state its CC50 at 24 h.
1. OCCN1CCN(CC/C=C2/c3ccccc3Sc3ccc(Cl)cc32)CC1 [Zuclopenthixol]
2. COc1ccc2cc1Oc1ccc(cc1)C[C@H]1c3cc(c(OC)cc3CCN1C)Oc1c(OC)c(OC)cc3c1[C@H](C2)N(C)CC3 [Hanfangchin A]
3. CCCCCCOC(=O)NC(=N)c1ccc(NCc2nc3cc(C(=O)N(CCC(=O)OCC)c4ccccn4)ccc3n2C)cc1 [Dabigatran etexilate mesilate]
4. CC(CN(C)C)CN1c2ccccc2CCc2ccccc21 (stereo not drawn) [Trimipramine maleate]

1: > 16.8 µM; 2: > 18.9 µM; 3: > 26.5 µM; 4: 21.3 µM
